Sourced from the RNAGym collection of RNA variant scans (doi:10.1073/pnas.2313332121)

Field: polymerase ribozyme fitness (log ratio). Provide a value for each of the variants that follow.
B1: TPR 5TU (parent)
chain: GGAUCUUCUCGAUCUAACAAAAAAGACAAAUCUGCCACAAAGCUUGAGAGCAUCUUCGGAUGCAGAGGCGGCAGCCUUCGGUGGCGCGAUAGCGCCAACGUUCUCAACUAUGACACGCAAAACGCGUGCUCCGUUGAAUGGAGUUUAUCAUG

- Variants of: B1
- experiment_summary: polymerase ribozyme fitness, log enrichment relative to wild type (log ratio); higher = more active; in vitro selection for triplet polymerase activity
This sample holds only a part of the variants without activity.

>>> endpoint_result("G58A A73G G88C A150U")
"≤ -4.2"

Provide reported polymerase ribozyme fitness (log ratio) for each item, in the same order as listed.
1. A17C G25C A41U C51A G84C G94U A110G U144C U146G
2. A12U G42C C72G C76A A91U A120U U144C

Response:
1. ≤ -4.2
2. ≤ -4.2

Go through the list and state polymerase ribozyme fitness (log ratio) for each entry.
1. G80C
2. A40C
3. C8U A24U U55G C69U G74U C87A A138U
4. C5U A22C G83C C93U U101G C116A
5. C27U A40C U55A C114U U139G

Response:
1. -3.5
2. 0.603
3. ≤ -4.2
4. -2.06
5. -3.95

Each variant below has a recorded value; state its polymerase ribozyme fitness (log ratio).
1. G42C U44A U90G G140U A147U
2. U4A C76G A91U A115U
3. G11C C54U C85U A115G
4. U56A C149A
5. G65A G74C G140U A147G
6. U7G A19C A40G U56A A120G A150C
7. A20U C35U C95A A97G C99A C105U A138G

Response:
1: ≤ -4.2; 2: ≤ -4.2; 3: -3.49; 4: -3.67; 5: ≤ -4.2; 6: ≤ -4.2; 7: ≤ -4.2

State the recorded polymerase ribozyme fitness (log ratio) for every item in the following list.
1. U9G U55A C96G C116A
2. U9G A12U A19U A21U G58A C76U G84A A106U
3. A30G U44A A49U C87U G88A G92A A115U
4. C75U A91G C99U

Response:
[-4.14, "≤ -4.2", "≤ -4.2", -3.56]

Hi team, please reply with polymerase ribozyme fitness (log ratio) for each item in this list.
1. A30C C87G U101C
2. A20C C103G
3. A20U G70C C93G

Response:
1: ≤ -4.2; 2: -1.28; 3: ≤ -4.2
